- Tested on: Fusarium strains
- experiment.description: MFC determination, Table 17
- Assay type: cell-based, Fusarium spp.
- applied.conditions: Fusarium strains (Table 17); in µg/mL
endpoint.name: MFC Range

Measured MFC Range (Fusarium strains), entry CC[C@H](C)C[C@H](C)CCCCCCCCC(=O)N[C@H]1C[C@@H](O)[C@@H](NCCN)NC(=O)[C@@H]2[C@@H](O)CCN2C(=O)[C@H]([C@H](O)CCN)NC(=O)[C@H]([C@H](O)[C@@H](O)c2ccc(O)cc2)NC(=O)[C@@H]2C[C@@H](O)CN2C(=O)[C@H]([C@@H](C)O)NC1=O : >32

Hey, Fusarium strains data for C[C@@H]1[C@H](O)[C@@H](C)/C=C/C=C/C=C/C=C/C=C/C=C/C=C/[C@H](O[C@@H]2O[C@H](C)[C@@H](O)[C@H](N)[C@@H]2O)C[C@@H]2O[C@](O)(C[C@@H](O)[C@H](O)CC[C@@H](O)C[C@@H](O)C[C@@H](O)CC(=O)O[C@H]1C)C[C@H](O)[C@H]2C : MFC Range came out at 1-4

Lab note: molecule C[C@@H]1[C@H](O)[C@@H](C)/C=C/C=C/C=C/C=C/C=C/C=C/C=C/[C@H](O[C@@H]2O[C@H](C)[C@@H](O)[C@H](N)[C@@H]2O)C[C@@H]2O[C@](O)(C[C@@H](O)C[C@@H](O)[C@H](O)CC[C@@H](O)C[C@@H](O)CC(=O)O[C@H]1C)C[C@H](O)[C@H]2C(=O)O tested on Fusarium strains; recorded MFC Range was 1-4

Observed MFC Range on Fusarium strains, entry OC(Cn1cncn1)(Cn1cncn1)c1ccc(F)cc1F , equals >64

---

Please provide measured MIC50 for the entries that follow.
- Tested on: individual Aspergillus spp. (Table 14, species not named)
- experiment.description: MIC testing (CLSI M38-A2), Table 14
- Assay type: cell-based
- applied.conditions: Aspergillus sp. of Table 14; inhibits 50% of strains; caspofungin read as MEC
Numbers only; they are read as µg/mL.

Param item: CC[C@H](C)C[C@H](C)CCCCCCCCC(=O)N[C@H]1C[C@@H](O)[C@@H](NCCN)NC(=O)[C@@H]2[C@@H](O)CCN2C(=O)[C@H]([C@H](O)CCN)NC(=O)[C@H]([C@H](O)[C@@H](O)c2ccc(O)cc2)NC(=O)[C@@H]2C[C@@H](O)CN2C(=O)[C@H]([C@@H](C)O)NC1=O ; param system: individual Aspergillus spp. (Table 14, species not named); output MIC50: 0.125

Reading of MIC50 for C[C@@H]1[C@H](O)[C@@H](C)/C=C/C=C/C=C/C=C/C=C/C=C/C=C/[C@H](O[C@@H]2O[C@H](C)[C@@H](O)[C@H](N)[C@@H]2O)C[C@@H]2O[C@](O)(C[C@@H](O)C[C@@H](O)[C@H](O)CC[C@@H](O)C[C@@H](O)CC(=O)O[C@H]1C)C[C@H](O)[C@H]2C(=O)O with individual Aspergillus spp. (Table 14, species not named): 1

// compound C[C@@H](c1ncncc1F)[C@](O)(Cn1cncn1)c1ccc(F)cc1F , assay individual Aspergillus spp. (Table 14, species not named), MIC50 value: 1

Entry C[C@@H]1[C@H](O)[C@@H](C)/C=C/C=C/C=C/C=C/C=C/C=C/C=C/[C@H](O[C@@H]2O[C@H](C)[C@@H](O)[C@H](N)[C@@H]2O)C[C@@H]2O[C@](O)(C[C@@H](O)[C@H](O)CC[C@@H](O)C[C@@H](O)C[C@@H](O)CC(=O)O[C@H]1C)C[C@H](O)[C@H]2C , individual Aspergillus spp. (Table 14, species not named) data, MIC50 value: 2

---

Provide the reported MIC50 of each item.
- Test system: Candida albicans
- experiment.description: MIC testing (CLSI M27-A3)
- Format: cell-based
- applied.conditions: Fluconazole-susceptible C. albicans n = 13; inhibits 50% of strains
Please give a number only; it is taken to be in µg/mL.

Notebook: C[C@@H]1[C@H](O)[C@@H](C)/C=C/C=C/C=C/C=C/C=C/C=C/C=C/[C@H](O[C@@H]2O[C@H](C)[C@@H](O)[C@H](N)[C@@H]2O)C[C@@H]2O[C@](O)(C[C@@H](O)[C@H](O)CC[C@@H](O)C[C@@H](O)C[C@@H](O)CC(=O)O[C@H]1C)C[C@H](O)[C@H]2C [Compound 1A] , MIC50 read as 0.5

Given item C[C@@H](c1ncncc1F)[C@](O)(Cn1cncn1)c1ccc(F)cc1F [Voriconazole, voriconazole] , the value recorded as its MIC50 is 0.6

Form: compound = OC(Cn1cncn1)(Cn1cncn1)c1ccc(F)cc1F [Fluconazole, fluconazole] ; MIC50 = 0.25

Just so you know, measured MIC50 for C[C@@H]1[C@H](O)[C@@H](C)/C=C/C=C/C=C/C=C/C=C/C=C/C=C/[C@H](O[C@@H]2O[C@H](C)[C@@H](O)[C@H](N)[C@@H]2O)C[C@@H]2O[C@](O)(C[C@@H](O)C[C@@H](O)[C@H](O)CC[C@@H](O)C[C@@H](O)CC(=O)O[C@H]1C)C[C@H](O)[C@H]2C(=O)O [Amphotericin B] came out at 0.25

The recorded MIC50 for entry CC[C@H](C)C[C@H](C)CCCCCCCCC(=O)N[C@H]1C[C@@H](O)[C@@H](NCCN)NC(=O)[C@@H]2[C@@H](O)CCN2C(=O)[C@H]([C@H](O)CCN)NC(=O)[C@H]([C@H](O)[C@@H](O)c2ccc(O)cc2)NC(=O)[C@@H]2C[C@@H](O)CN2C(=O)[C@H]([C@@H](C)O)NC1=O [Caspofungin, caspofungin] equals 0.25

---

- Tested on: Cr. neoformans strains
- experiment.description: MFC determination
- Format: cell-based, Cryptococcus neoformans
- applied.conditions: Cr. neoformans; kills 50% of strains
Kindly supply the reported MFC50 values for the records listed here.
Your answer is read as mg/L, so omit the unit and give the number.

Reported MFC50 (Cr. neoformans strains) for entry C[C@@H]1[C@H](O)[C@@H](C)/C=C/C=C/C=C/C=C/C=C/C=C/C=C/[C@H](O[C@@H]2O[C@H](C)[C@@H](O)[C@H](N)[C@@H]2O)C[C@@H]2O[C@](O)(C[C@@H](O)C[C@@H](O)[C@H](O)CC[C@@H](O)C[C@@H](O)CC(=O)O[C@H]1C)C[C@H](O)[C@H]2C(=O)O is 0.5

MFC50 value, target or system Cr. neoformans strains, for C[C@@H]1[C@H](O)[C@@H](C)/C=C/C=C/C=C/C=C/C=C/C=C/C=C/[C@H](O[C@@H]2O[C@H](C)[C@@H](O)[C@H](N)[C@@H]2O)C[C@@H]2O[C@](O)(C[C@@H](O)[C@H](O)CC[C@@H](O)C[C@@H](O)C[C@@H](O)CC(=O)O[C@H]1C)C[C@H](O)[C@H]2C : 1

---

- Test system: Fusarium strains
- experiment.description: MIC testing (CLSI M38-A2), Table 17
- Format: cell-based, Fusarium spp.
- applied.conditions: Fusarium strains (Table 17); inhibits 90% of strains
endpoint.name: MIC90 (µg/mL)
Give the value in µg/mL but do not write µg/mL after it.

Measured on Fusarium strains, C[C@@H]1[C@H](O)[C@@H](C)/C=C/C=C/C=C/C=C/C=C/C=C/C=C/[C@H](O[C@@H]2O[C@H](C)[C@@H](O)[C@H](N)[C@@H]2O)C[C@@H]2O[C@](O)(C[C@@H](O)[C@H](O)CC[C@@H](O)C[C@@H](O)C[C@@H](O)CC(=O)O[C@H]1C)C[C@H](O)[C@H]2C has a documented MIC90 of 4

For C[C@@H]1[C@H](O)[C@@H](C)/C=C/C=C/C=C/C=C/C=C/C=C/C=C/[C@H](O[C@@H]2O[C@H](C)[C@@H](O)[C@H](N)[C@@H]2O)C[C@@H]2O[C@](O)(C[C@@H](O)C[C@@H](O)[C@H](O)CC[C@@H](O)C[C@@H](O)CC(=O)O[C@H]1C)C[C@H](O)[C@H]2C(=O)O on Fusarium strains, measured MIC90 was 2

Fusarium strains MIC90 of CC[C@H](C)C[C@H](C)CCCCCCCCC(=O)N[C@H]1C[C@@H](O)[C@@H](NCCN)NC(=O)[C@@H]2[C@@H](O)CCN2C(=O)[C@H]([C@H](O)CCN)NC(=O)[C@H]([C@H](O)[C@@H](O)c2ccc(O)cc2)NC(=O)[C@@H]2C[C@@H](O)CN2C(=O)[C@H]([C@@H](C)O)NC1=O is 32

---

- Tested on: Fusarium strains
- experiment.description: MFC determination, Table 17
- Format: cell-based, Fusarium spp.
- applied.conditions: Fusarium strains (Table 17); kills 50% of strains
endpoint.name: MFC50 (µg/mL)
Enter your answer as a number in µg/mL; do not include the unit.

Looking up C[C@@H](c1ncncc1F)[C@](O)(Cn1cncn1)c1ccc(F)cc1F , I found its MFC50 recorded as 32

Given item C[C@@H]1[C@H](O)[C@@H](C)/C=C/C=C/C=C/C=C/C=C/C=C/C=C/[C@H](O[C@@H]2O[C@H](C)[C@@H](O)[C@H](N)[C@@H]2O)C[C@@H]2O[C@](O)(C[C@@H](O)C[C@@H](O)[C@H](O)CC[C@@H](O)C[C@@H](O)CC(=O)O[C@H]1C)C[C@H](O)[C@H]2C(=O)O , the value recorded as its MFC50 is 2

C[C@@H]1[C@H](O)[C@@H](C)/C=C/C=C/C=C/C=C/C=C/C=C/C=C/[C@H](O[C@@H]2O[C@H](C)[C@@H](O)[C@H](N)[C@@H]2O)C[C@@H]2O[C@](O)(C[C@@H](O)[C@H](O)CC[C@@H](O)C[C@@H](O)C[C@@H](O)CC(=O)O[C@H]1C)C[C@H](O)[C@H]2C has a reported MFC50 of 2
